target.or.test.system: Nucleic Acid
measurement.notes: Displacement of methyl green from DNA after 24 hrs by microtiter assay
Format: nucleic-acid assay
parameter: IC50

>>> result("N=C(N)c1ccc(/N=N/Nc2ccc(C(=N)N)cc2)cc1")
"67 µg/mL"

For each listed entry, give its IC50.
1. C/C=C\C1OC1(C)c1cc(=O)c2c(C)cc3c(c2o1)C(=O)c1c(O)c([C@H]2C[C@](C)(N(C)C)[C@@H](OC(C)=O)[C@@H](C)O2)cc([C@@H]2C[C@H](N(C)C)[C@@H](O)[C@@H](C)O2)c1C3=O (some centres undefined)
2. COC(=O)C(O)(c1cc2c(c3oc([C@]4(C)C[C@@H]4C)cc(=O)c13)C(=O)c1c(ccc([C@H]3C[C@](C)(N(C)C)[C@H](O[C@@H]4C[C@H](OC)[C@H](O)[C@@H](C)O4)[C@H](C)O3)c1O)C2=O)[C@H]1O[C@H](C)[C@@H](O)[C@@H](OC)[C@@H]1O (some centres undefined)
3. CCOc1ccc(-c2nc3cc(-c4nc5cc(N6CCN(C)CC6)ccc5[nH]4)ccc3[nH]2)cc1
4. COc1c(O)c2c(c3cc(C(=O)N4CCc5c4c(O)c(OC)c4[nH]c(C(=O)N6C[C@H]7C[C@@]78C6=CC(=O)c6[nH]cc(C)c68)cc54)[nH]c13)CCN2C(N)=O [(+)-CC-1065]
5. COc1cc2c(oc(=O)c3cc(C)cc(OC)c32)c2c([C@@H]3O[C@H](C)[C@H](O)[C@@](C)(O)[C@H]3O)ccc(O)c12
6. Cn1cc(NC(=O)c2cc(NC(=O)c3cc(NC=O)cn3C)cn2C)cc1C(=O)NCCC(=N)N

Completion:
51 µg/mL
67 µg/mL
37 µg/mL
62 µg/mL
20 µg/mL
18 µg/mL

For each listed entry, give its IC50.
1. C/C=C\C1OC1(C)c1cc(=O)c2c(C)cc3c(c2o1)C(=O)c1c(O)c([C@H]2C[C@@](C)(N(C)C)[C@H](O)[C@H](C)O2)cc([C@@H]2C[C@H](N(C)C)[C@@H](O)[C@@H](C)O2)c1C3=O (some centres undefined)
2. COc1cccc2c1C(=O)c1c(O)c3c(c(O)c1C2=O)C[C@@](O)(C(C)=O)C[C@@H]3O[C@H]1C[C@H](N)[C@H](O)[C@H](C)O1

Completion:
17 µg/mL
30 µg/mL
